- Test system: Candida tropicalis
- methodSummary: Anti-fungal activity against Candida tropicalis assessed as inhibition of fungal growth
- Format: functional
- conditionParameters: Candida tropicalis; read-out: MIC
Assignment: determine reported log10 of MIC for the given molecules.
Give log10 of MIC, with MIC taken in µM.

Input line: For CCOC(=O)C1=C(CN2CCN(C(=O)/C(=N/OC)c3csc(N)n3)CC2)NC(=O)NC1c1ccc(F)cc1F (stereo not drawn) , what is its reported log10 of MIC?
Output line: 2.67

Input line: What log10 of MIC value was documented for this molecule, CCOC(=O)C1=C(CN2CCN(C(=O)/C(=N/OC)c3csc(N)n3)CC2)NC(=O)NC1c1ccc(O)c(OC)c1 (stereo not drawn) ?
Output line: 2.65

Input line: Endpoint output: log10 of MIC of OC(Cn1cncn1)(Cn1cncn1)c1ccc(F)cc1F [FLUCONAZOLE] . Value?
Output line: 1.41

Input line: // returns reported log10 of MIC for input CCOC(=O)C1=C(CN2CCN(C(=O)/C(=N/OC)c3csc(N)n3)CC2)NC(=O)NC1c1ccc(Cl)cc1Cl (stereo not drawn)
Output line: 2.65

Input line: Value lookup for log10 of MIC; key = CCOC(=O)C1=C(CN2CCN(C(=O)/C(=N/OC)c3csc(N)n3)CC2)NC(=O)NC1c1ccc(N(C)C)cc1 (stereo not drawn)
Output line: 2.61

Input line: // lookup log10 of MIC for CCCCc1nc(Cl)c(C2NC(=O)NC(CN3CCN(CC(=O)c4ccc(F)cc4)CC3)=C2C(=O)OCC)[nH]1 (stereo not drawn)
Output line: 2.66

Input line: Which measured log10 of MIC value corresponds to CCOC(=O)C1=C(CN2CCN(C(=O)/C(=N/OC)c3csc(N)n3)CC2)NC(=O)NC1c1cccc(O)c1 (stereo not drawn) ?
Output line: 2.63

Input line: Param item = CCCCc1nc(Cl)c(C2NC(=O)NC(CN3CCN(C(=O)/C(=N/OC)c4csc(N)n4)CC3)=C2C(=O)OCC)[nH]1 (stereo not drawn) ; retrieve measured log10 of MIC.
Output line: 1.72
